These measurements were taken from patent US20250313535A1.

Can you tell me IC50 for the items I'm about to list?
target: α4β1 integrin (Homo sapiens (Human), UniProt P05556+P13612); test: Integrin Adhesion Assay: Protocol 5 (VCAM-coated plate, RPMI-8866 cells with stable LOF mutation of the ITGB7 gene); assay type: cell-based; conditions: RPMI-8866 cells with stable LOF mutation of the ITGB7 gene; read-out: Mean IC50 α4β1 KO^b
Sequence (P13612 34-1032): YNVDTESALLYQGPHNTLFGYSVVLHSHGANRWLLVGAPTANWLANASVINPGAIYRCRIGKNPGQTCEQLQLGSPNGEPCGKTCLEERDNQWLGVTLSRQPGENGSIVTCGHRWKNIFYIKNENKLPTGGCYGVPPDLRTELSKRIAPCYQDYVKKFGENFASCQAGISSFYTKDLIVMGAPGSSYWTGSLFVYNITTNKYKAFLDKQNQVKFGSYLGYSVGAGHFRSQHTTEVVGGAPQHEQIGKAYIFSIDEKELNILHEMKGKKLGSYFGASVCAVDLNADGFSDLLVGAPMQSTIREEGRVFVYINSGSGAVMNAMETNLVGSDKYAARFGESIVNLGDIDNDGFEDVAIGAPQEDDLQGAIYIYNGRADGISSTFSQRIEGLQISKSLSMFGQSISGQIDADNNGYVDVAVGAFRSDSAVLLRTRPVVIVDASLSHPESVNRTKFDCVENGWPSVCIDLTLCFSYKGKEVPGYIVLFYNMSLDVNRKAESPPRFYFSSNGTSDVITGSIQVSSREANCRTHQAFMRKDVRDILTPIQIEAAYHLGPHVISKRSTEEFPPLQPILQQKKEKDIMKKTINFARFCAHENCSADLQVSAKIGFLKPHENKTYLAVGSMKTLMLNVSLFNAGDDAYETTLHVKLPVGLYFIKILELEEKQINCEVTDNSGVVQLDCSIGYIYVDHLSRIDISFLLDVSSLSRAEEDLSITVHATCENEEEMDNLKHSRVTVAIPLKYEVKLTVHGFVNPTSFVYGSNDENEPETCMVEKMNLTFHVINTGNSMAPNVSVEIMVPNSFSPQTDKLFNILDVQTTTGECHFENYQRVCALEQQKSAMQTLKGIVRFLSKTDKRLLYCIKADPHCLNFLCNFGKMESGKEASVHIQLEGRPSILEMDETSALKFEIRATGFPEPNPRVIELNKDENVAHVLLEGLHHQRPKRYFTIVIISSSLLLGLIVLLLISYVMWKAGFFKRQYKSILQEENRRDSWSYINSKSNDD
Sequence (P05556 21-798): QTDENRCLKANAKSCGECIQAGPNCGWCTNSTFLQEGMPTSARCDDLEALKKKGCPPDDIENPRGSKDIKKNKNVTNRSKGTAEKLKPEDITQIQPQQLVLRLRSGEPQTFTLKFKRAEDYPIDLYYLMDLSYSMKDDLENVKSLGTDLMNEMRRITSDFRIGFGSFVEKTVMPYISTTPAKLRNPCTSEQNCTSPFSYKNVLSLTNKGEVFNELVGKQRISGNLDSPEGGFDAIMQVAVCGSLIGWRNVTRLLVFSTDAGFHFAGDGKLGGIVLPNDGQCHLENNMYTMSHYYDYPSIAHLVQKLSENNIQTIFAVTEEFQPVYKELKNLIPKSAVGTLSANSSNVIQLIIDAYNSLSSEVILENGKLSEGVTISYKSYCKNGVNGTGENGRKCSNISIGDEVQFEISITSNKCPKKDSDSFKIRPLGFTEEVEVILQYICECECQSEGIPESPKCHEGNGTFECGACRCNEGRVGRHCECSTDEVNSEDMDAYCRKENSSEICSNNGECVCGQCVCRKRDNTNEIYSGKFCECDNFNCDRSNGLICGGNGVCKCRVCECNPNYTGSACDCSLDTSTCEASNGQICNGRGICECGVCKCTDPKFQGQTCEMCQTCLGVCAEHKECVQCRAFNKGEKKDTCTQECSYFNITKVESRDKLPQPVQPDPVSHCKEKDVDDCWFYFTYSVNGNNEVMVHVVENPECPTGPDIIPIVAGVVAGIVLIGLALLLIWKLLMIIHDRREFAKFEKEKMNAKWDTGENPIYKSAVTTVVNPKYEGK

Problem: Item COc1ccc(CN2C(C)CCC2C)c(OC)c1-c1cccc2c(C[C@H](NC(=O)c3c(C)cccc3F)C(=O)O)cccc12 (stereo partly drawn) [Compound 635] has what recorded IC50?
Solution: > 1000 nM

Problem: Item COc1ccc(CN2CCC(F)(F)CC2)c(OC)c1-c1cccc2c(C[C@H](NC(=O)C3(C(F)(F)F)CCN([C@H]4COC[C@@H]4F)CC3)C(=O)O)cccc12 [Compound 669] has what recorded IC50?
Solution: > 1000 nM

Problem: Item COc1ccc(CN2CCC(C)(C)CC2)c(C(F)(F)F)c1-c1cccc2c(C[C@H](NC(=O)c3c(C)cccc3F)C(=O)O)cccc12 [Compound 658] has what recorded IC50?
Solution: 100 to 1000 nM

Problem: Item Cc1[nH]c2ccccc2c1-c1cc(F)c(C(=O)N[C@@H](Cc2cccc3c(-c4c(C(F)(F)F)c5ccccc5n(C)c4=O)cccc23)C(=O)O)c(F)c1 [Compound 327] has what recorded IC50?
Solution: > 1000 nM

Problem: Item O=C(N[C@@H](Cc1cccc2c(-c3cccc4ccncc34)cccc12)C(=O)O)c1c(F)cccc1CN1CCCC1 [Compound 356] has what recorded IC50?
Solution: > 1000 nM

Problem: Item COc1ccc(CN2CCC(CF)CC2)c(OC)c1-c1cccc2c(C[C@H](NC(=O)c3c(C)cccc3F)C(=O)O)cccc12 [Compound 652] has what recorded IC50?
Solution: 100 to 1000 nM

====

Can you tell me pIC50 for the items I'm about to list?
target: α4β7 integrin (Homo sapiens (Human), UniProt P13612+P26010); assay: Integrin Adhesion Assay: Protocol 1 (MAdCAM-coated plate, RPMI-8866 cells, CellTiter GLO readout); format: cell-based; conditions: integrin adhesion assay; determined by at least one of the assays described (protocol not specified)
Sequence (P26010 20-798, one chain of several): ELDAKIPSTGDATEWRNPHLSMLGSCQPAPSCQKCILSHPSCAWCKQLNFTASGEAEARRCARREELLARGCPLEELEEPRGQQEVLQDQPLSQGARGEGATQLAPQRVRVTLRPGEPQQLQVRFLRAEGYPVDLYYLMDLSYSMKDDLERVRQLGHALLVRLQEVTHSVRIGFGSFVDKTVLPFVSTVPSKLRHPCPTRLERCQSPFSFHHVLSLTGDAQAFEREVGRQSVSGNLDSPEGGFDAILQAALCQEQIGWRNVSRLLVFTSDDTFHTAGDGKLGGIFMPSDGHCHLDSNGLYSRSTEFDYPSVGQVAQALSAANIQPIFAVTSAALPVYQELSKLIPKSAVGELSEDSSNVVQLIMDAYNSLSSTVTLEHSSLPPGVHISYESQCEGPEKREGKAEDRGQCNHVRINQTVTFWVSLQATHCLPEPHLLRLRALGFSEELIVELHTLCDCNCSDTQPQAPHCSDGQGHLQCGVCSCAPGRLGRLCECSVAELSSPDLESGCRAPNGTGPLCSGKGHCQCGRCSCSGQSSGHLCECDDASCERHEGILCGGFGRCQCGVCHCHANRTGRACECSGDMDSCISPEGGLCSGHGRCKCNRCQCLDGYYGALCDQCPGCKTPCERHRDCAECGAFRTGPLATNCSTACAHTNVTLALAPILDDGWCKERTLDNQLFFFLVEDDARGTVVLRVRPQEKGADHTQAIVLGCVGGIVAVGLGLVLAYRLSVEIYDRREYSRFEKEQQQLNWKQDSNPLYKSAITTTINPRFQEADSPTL
pIC50: −log10 of the molar value.

Problem: Short answer please: pIC50, α4β7 integrin (Homo sapiens (Human), UniProt P13612+P26010), entry CCN1CCC(C)(C(=O)N[C@@H](Cc2cccc3c(-n4c(=O)ccn(C)c4=O)cccc23)C(=O)O)C(F)(F)C1 (stereo partly shown)
Solution: 6.00 to 7.00

Problem: Short answer please: pIC50, α4β7 integrin (Homo sapiens (Human), UniProt P13612+P26010), entry Cn1ccc(=O)n(-c2cccc3c(C[C@H](NC(=O)c4c(F)cc5nn(CC(F)(F)F)cc5c4F)C(=O)O)cccc23)c1=O
Solution: > 8.00

Problem: Short answer please: pIC50, α4β7 integrin (Homo sapiens (Human), UniProt P13612+P26010), entry O=C(N[C@@H](Cc1cccc2c(-c3cccc4ccncc34)nccc12)C(=O)O)c1c(F)cc(N2CCOC[C@@H]2C(F)(F)F)cc1F
Solution: 7.00 to 8.00

Problem: Short answer please: pIC50, α4β7 integrin (Homo sapiens (Human), UniProt P13612+P26010), entry Cn1c(=O)c2ccccc2n(-c2cccc3c(C[C@H](NC(=O)c4c(F)cccc4F)C(=O)O)cccc23)c1=O
Solution: 7.00 to 8.00

Problem: Short answer please: pIC50, α4β7 integrin (Homo sapiens (Human), UniProt P13612+P26010), entry Cn1ccc(=O)n(-c2cccc3c(C[C@H](NC(=O)c4c(F)ccc(OC(F)F)c4F)C(=O)O)cccc23)c1=O
Solution: 7.00 to 8.00

Problem: Short answer please: pIC50, α4β7 integrin (Homo sapiens (Human), UniProt P13612+P26010), entry O=C(N[C@@H](Cc1cccc2c(-c3cccc4ccncc34)cccc12)C(=O)O)c1c(F)cc(N2CCOC[C@@H]2C(F)(F)F)cc1F
Solution: 7.00 to 8.00

Problem: Short answer please: pIC50, α4β7 integrin (Homo sapiens (Human), UniProt P13612+P26010), entry CNC(=O)[C@@H]1CCN1C(=O)c1ccc2cc(C(=O)N[C@@H](Cc3cccc4c(-n5c(=O)ccn(C)c5=O)cccc34)C(=O)O)ccc2c1
Solution: < 6.00

Problem: Short answer please: pIC50, α4β7 integrin (Homo sapiens (Human), UniProt P13612+P26010), entry Cn1ccc(=O)n(-c2cccc3c(C[C@H](NC(=O)c4c(F)cc5cnn(CC(F)(F)F)c5c4F)C(=O)O)cccc23)c1=O
Solution: > 8.00

Problem: Short answer please: pIC50, α4β7 integrin (Homo sapiens (Human), UniProt P13612+P26010), entry Cn1ccc(=O)n(-c2cccc3c(C[C@H](NC(=O)c4c(F)cc(N5CCOC[C@@H]5C(F)(F)F)cc4F)C(=O)O)cccc23)c1=O
Solution: > 8.00

Problem: Short answer please: pIC50, α4β7 integrin (Homo sapiens (Human), UniProt P13612+P26010), entry CC[C@@H](Nc1cc(F)c(C(=O)N[C@@H](Cc2cccc3c(-n4c(=O)ccn(C)c4=O)cccc23)C(=O)O)c(F)c1)C(F)(F)F
Solution: > 8.00

Problem: Short answer please: pIC50, α4β7 integrin (Homo sapiens (Human), UniProt P13612+P26010), entry Cn1ccc(=O)n(-c2cccc3c(C[C@H](NC(=O)[C@@H]4CCCN4c4ccccc4C#N)C(=O)O)cccc23)c1=O
Solution: 7.00 to 8.00

Problem: Short answer please: pIC50, α4β7 integrin (Homo sapiens (Human), UniProt P13612+P26010), entry CCc1ccc(F)c(C(=O)N[C@@H](Cc2cccc3c(-n4c(=O)ccn(C)c4=O)cccc23)C(=O)O)c1F
Solution: 7.00 to 8.00

Problem: Short answer please: pIC50, α4β7 integrin (Homo sapiens (Human), UniProt P13612+P26010), entry Cn1ccc(=O)n(-c2cccc3c(C[C@H](NC(=O)C4(C)CCOCC4)C(=O)O)cccc23)c1=O
Solution: 7.00 to 8.00

Problem: Short answer please: pIC50, α4β7 integrin (Homo sapiens (Human), UniProt P13612+P26010), entry Cc1nn(CC(F)(F)F)c(C)c1C(=O)N[C@@H](Cc1cccc2c(-n3c(=O)ccn(C)c3=O)cccc12)C(=O)O
Solution: 7.00 to 8.00

Problem: Short answer please: pIC50, α4β7 integrin (Homo sapiens (Human), UniProt P13612+P26010), entry O=C(N[C@@H](Cc1cccc2c(-c3cccc4ccncc34)nccc12)C(=O)O)c1c(F)cc(N(CC(F)(F)F)CC(F)(F)F)cc1CN1CCCC1
Solution: > 8.00

Problem: Short answer please: pIC50, α4β7 integrin (Homo sapiens (Human), UniProt P13612+P26010), entry Cn1ccc(=O)n(-c2cccc3c(C[C@H](NC(=O)c4cc(C(=O)NCCCCN)n(-c5ccccc5)n4)C(=O)O)cccc23)c1=O
Solution: < 6.00

Problem: Short answer please: pIC50, α4β7 integrin (Homo sapiens (Human), UniProt P13612+P26010), entry O=C(N[C@@H](Cc1cccc2c(-c3cccc4ccncc34)cccc12)C(=O)O)c1c(F)cc(NCC(F)(F)F)cc1CN1CCCC1
Solution: > 8.00

Problem: Short answer please: pIC50, α4β7 integrin (Homo sapiens (Human), UniProt P13612+P26010), entry Cn1c(CCN2CC(F)C2)cc(=O)n(-c2cccc3c(C[C@H](NC(=O)c4c(F)cc(N5CCOC[C@@H]5C(F)(F)F)cc4F)C(=O)O)cccc23)c1=O
Solution: > 8.00

Problem: Short answer please: pIC50, α4β7 integrin (Homo sapiens (Human), UniProt P13612+P26010), entry CC(=O)N1CCC(C)(C(=O)N[C@@H](Cc2cccc3c(-n4c(=O)ccn(C)c4=O)cccc23)C(=O)O)CC1
Solution: 6.00 to 7.00

Problem: Short answer please: pIC50, α4β7 integrin (Homo sapiens (Human), UniProt P13612+P26010), entry Cn1ccc(=O)n(-c2cccc3c(C[C@H](NC(=O)c4c(F)ccc(NCC(F)(F)F)c4F)C(=O)O)cccc23)c1=O
Solution: 7.00 to 8.00

Problem: Short answer please: pIC50, α4β7 integrin (Homo sapiens (Human), UniProt P13612+P26010), entry Cn1ccc(=O)n(-c2cccc3c(C[C@H](NC(=O)c4c(F)ccc(C(F)(F)F)c4F)C(=O)O)cccc23)c1=O
Solution: 7.00 to 8.00

Problem: Short answer please: pIC50, α4β7 integrin (Homo sapiens (Human), UniProt P13612+P26010), entry Cn1ccc(=O)n(-c2cccc3c(C[C@H](NC(=O)c4c(Cl)cccc4Cl)C(=O)O)cccc23)c1=O
Solution: > 8.00

Problem: Short answer please: pIC50, α4β7 integrin (Homo sapiens (Human), UniProt P13612+P26010), entry Cn1ccc(=O)n(-c2cccc3c(C[C@H](NC(=O)C4(Cc5ccc(F)cc5)CCC(F)(F)CC4)C(=O)O)cccc23)c1=O
Solution: < 6.00

Problem: Short answer please: pIC50, α4β7 integrin (Homo sapiens (Human), UniProt P13612+P26010), entry Cn1ccc(=O)n(-c2cccc3c(C[C@H](NC(=O)C(C)(C)c4cccc(-c5ccccc5)c4)C(=O)O)cccc23)c1=O
Solution: 6.00 to 7.00

Problem: Short answer please: pIC50, α4β7 integrin (Homo sapiens (Human), UniProt P13612+P26010), entry Cn1ccc(=O)n(-c2cccc3c(C[C@H](NC(=O)[C@@]4(C)CCCN(CC(F)(F)F)CC4)C(=O)O)cccc23)c1=O [Compound 158]
Solution: 6.00 to 7.00
